Tested on: neprilysin (NEP)
Protocol Text: Stability test: cleavage of peptide by NEP
Format: in vitro ADME
Setup Conditions: human, isolated human neprilysin (NEP); peptide 30 µmol·L−1 incubated four hours at 37 °C with NEP (7.5 n); RP-HPLC C-18, UV 214 nm
No end group written: not given here.
# metabolised at 4 h, 30 µmol·L−1 annotations

Record Sequence	Readout Type	Reported Result
PRLRRLTGLSPLRAP [β-campsomerin]	metabolised at 4 h, 30 µmol·L−1	< 0.01%

Then there is this sequence:
Problem: What value of metabolised at 4 h, 30 µmol·L−1 has been recorded for this entry: PRLRRLTGLSPLR [α-campsomerin]
Result: < 0.01%
